meta.source: PubChem BioAssay AID2599

# MEASUREMENT_TARGET: Sentrin-specific protease 6 (Homo sapiens)
# METHOD: SENP6 protease inhibitors, primary screen, biochemical, luminescence, uHTS (AID 2599);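 also: plate controls were DMSO wells with enzyme for no effect and DMSO wells lacking enzyme for full effect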
# CONDITIONS: Recombinant SENP6 catalytic domain, aminoluciferin luminescence; at 10 µM; active compounds read high
Among all 330,000 compounds or so, about 5,800 (1.8%) were called active. Many of the other results were omitted from the sample, so actives are more common in it than they were.
PROPERTY_MEASURED: inhibition

Illustrative cases are given below, each with its answer.
- COc1ccc([N+](=O)[O-])cc1-c1nc2ccccc2nc1-c1ccccc1: -3.14% (inactive)
- COc1cccc(-c2nc3cc(C)ccc3o2)c1: 97.8% (active)
- CCOc1ccc(S(=O)(=O)N2CCC(C(=O)OCc3ccc(OC)cc3)CC2)cc1: -11.1% (inactive)

Dear colleague, could you send me inhibition for each of the items below? Thanks.
1. O=[N+]([O-])c1ccc2oc(-c3cccc(O)c3)nc2c1
2. COc1ccc2oc(-c3cccc(NC(=O)CSc4ccc(Cl)cc4)c3)nc2c1
3. CC(=O)c1c(C)[nH]c(C(=O)OCC(=O)NCCC(C)C)c1C

Response:
1. 65.4% (active)
2. -0.568% (inactive)
3. -9.8% (inactive)

====

# MEASUREMENT_TARGET: Sentrin-specific protease 6 (Homo sapiens) (UniProt Q9GZR1)
# Sequence (Q9GZR1 628-1112 limits assumed): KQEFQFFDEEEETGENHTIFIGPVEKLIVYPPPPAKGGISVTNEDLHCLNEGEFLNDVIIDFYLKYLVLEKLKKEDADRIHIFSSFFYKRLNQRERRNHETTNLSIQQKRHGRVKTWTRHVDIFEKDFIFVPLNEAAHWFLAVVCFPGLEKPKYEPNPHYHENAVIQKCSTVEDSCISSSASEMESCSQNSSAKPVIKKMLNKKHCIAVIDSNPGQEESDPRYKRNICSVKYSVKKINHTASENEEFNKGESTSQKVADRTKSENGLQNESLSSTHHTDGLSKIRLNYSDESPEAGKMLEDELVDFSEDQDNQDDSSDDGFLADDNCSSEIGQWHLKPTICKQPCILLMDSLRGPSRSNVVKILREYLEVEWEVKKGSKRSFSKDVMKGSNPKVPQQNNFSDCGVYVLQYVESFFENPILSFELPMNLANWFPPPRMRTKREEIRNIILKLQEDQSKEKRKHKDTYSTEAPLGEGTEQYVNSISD
# METHOD: SENP6 protease inhibitors, primary screen, biochemical, luminescence, uHTS (AID 2599)
# CONDITIONS: Recombinant SENP6 catalytic domain, aminoluciferin luminescence; at 10 µM; active compounds read high
About 5,800 (1.8%) of roughly 330,000 compounds were called active. Many of the other results were omitted from the sample, so actives are more common in it than they were.
Answer each item with its documented inhibition.
Answers are plain numbers, in %.

* CC(C)C(NC(=O)c1cccc(S(=O)(=O)N2CCOCC2)c1)C(=O)NCCc1ccccn1 (configuration not stated) | 0.86
* COc1ccc(CCNC(=O)CSCc2ccc(Br)cc2)cc1OC | 1.68
* CCOC(=O)C(NS(=O)(=O)c1ccc(C)cc1)(C(F)(F)F)P(=O)(OCC(C)C)OCC(C)C (configuration not stated) | 8.36
* COc1ccc(/C=C2\SC(=O)N(CCC(=O)NCCCn3ccnc3)C2=O)cc1 | 15.6
* COc1ccc(NC(=O)Nc2cccc3cccnc23)cc1 | 80.7

// batch mode: one inhibition value per listed entry
1. COc1ccc(/C=C2\SC(=O)N(CCC(=O)NC3CCS(=O)(=O)C3)C2=O)cc1 (configuration not stated)
2. CN1CCN(C(=O)/C(=C\c2cccs2)NC(=O)c2cccs2)CC1

Response:
12.7
-14.6

Fill in inhibition for each of the 7 compounds listed.
1. COc1ccc(Cl)cc1NS(=O)(=O)c1cccc(C(=O)NC2CCC(O)CC2)c1 (configuration not stated)
2. CCOC(=O)N1CCN(C(=O)COc2ccc3oc4c(c3c2)CCCC4)CC1
3. O=C(Nc1ccc(N2CCN(C(=O)c3ccccc3)CC2)c(Cl)c1)c1cccnc1
4. O=C(OC1CCOC1=O)c1ccc(-c2nc3ccccc3s2)s1 (configuration not stated)
5. O=c1c(-c2cccc(Cl)c2)c[nH]n1-c1ccccc1
6. O=C(/C=N/O)Nc1ccccc1
7. CCOC(=O)Cc1ncccc1C(=O)Nc1ccc(OC)cc1

Response:
1: 3.9; 2: 1.75; 3: 14.4; 4: 97.8; 5: 50.4; 6: -8.91; 7: 10.7

# batch: return inhibition for each of the 5 compounds below
1. O=C(Nc1ccccc1Cl)O/N=C(/c1ccccc1)c1ccccn1
2. COc1ccc(/C=C2/SC(=O)N(CCCCCC(=O)Nc3ccccc3C(=O)O)C2=S)cc1
3. COc1ccc(CCNC(=O)CCNS(=O)(=O)c2cc(Br)cnc2N)cc1OC
4. CSCCC(NC(=O)c1ccccc1)C(=O)N1CCN(Cc2ccc(Cl)cc2)CC1 (configuration not stated)
5. O=C(Nc1cccc2cccnc12)c1cccc(Cl)c1

Response:
1: 5.09; 2: 63.7; 3: -5.77; 4: -6.84; 5: 38.9

# per-item lookup of inhibition; items listed below
1. CCOC(=O)c1cccc(NC(=O)CCOc2ccccc2)c1
2. COc1ccc(NC(=O)C2CCCN(S(=O)(=O)c3cccc4cccnc34)C2)cc1 (configuration not stated)
3. O=C(NC(=S)N1CCc2ccccc21)c1ccco1

Response:
1: -8.69; 2: -2.53; 3: 7.02

====

# MEASUREMENT_TARGET: Sentrin-specific protease 6 (Homo sapiens) (UniProt Q9GZR1)
# METHOD: SENP6 protease inhibitors, primary screen, biochemical, luminescence, uHTS (AID 2599);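 also: plate controls were DMSO wells with enzyme for no effect and DMSO wells lacking enzyme for full effect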
# CONDITIONS: Recombinant SENP6 catalytic domain, aminoluciferin luminescence; at 10 µM
The campaign covered roughly 330,000 compounds. About 5,800 (1.8%) were called active.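 Rule for the calls: active = inhibition above about 50% at the single tested dose (limit read from the data); inactive = the rest.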 The full list was thinned out, with actives kept by preference.
Your answer must be one of the following: class 1 (active), class 0 (inactive)

* O=C(Nc1nc2ccc([N+](=O)[O-])cc2s1)c1ccncc1 | class 1
* CCC(CO)Oc1cc(NC(=O)c2cccc3ccccc23)c2ncn(C(C)C)c2c1 (stereo unspecified) | class 0
* C=C(C)CSc1nc(N)c2c3c(sc2n1)CCC3 | class 0
* CC1(C)CC(=O)C=C(NCCCN2CCCC2=O)C1 | class 0
* COc1ccc(/C=C2\CCc3ccccc3C2=O)c(OC)c1OC | class 0
* O=C(COC(=O)c1ccncc1)c1ccccc1 | class 0
* O=C(O)c1ccc(/C=C2\SC(=S)N(NC(=O)c3ccc(Br)cc3)C2=O)cc1 | class 0
* C/C(=N\NC(=O)c1ccccc1F)c1ccccn1 | class 0

Prompt: Could you please tell me the result logged for Cc1noc(C)c1COC(=O)COc1ccc(-c2ccccc2)cc1 in this assay?
Response: class 0

Prompt: Per the assay record, what outcome was assigned to COc1cccc(N2C(=O)CC(N3CCc4ccccc4C3)C2=O)c1 (stereo unspecified) ?
Response: class 0

Prompt: Which result was noted for this molecule in the test: CS(=O)(=O)c1ccc2nc(NC(=O)c3ccc(Cl)nc3)sc2c1
Response: class 0

Prompt: Write down the call the test reported for this molecule. Item: Cc1ccc(S(=O)(=O)C(C#N)c2nc3ccccc3nc2N2CCCC2)cc1C (stereo unspecified)
Response: class 1

Prompt: Record request — test call for O=C(c1ccc(F)cc1)c1cn(Cc2ccc(F)cc2)c2cc3c(cc2c1=O)OCCO3
Response: class 0

Prompt: Per the records of this test, what outcome belongs to Cc1noc(C)c1CSCC(=O)Nc1nc2ccc(Oc3ccccc3)cc2s1 ?
Response: class 0

Prompt: Tell me the recorded outcome of this test for Cc1ccc(C(=O)N/N=C/c2cccc3ccccc23)cn1 .
Response: class 0

Prompt: Recorded test outcome, item COc1ccc(CCc2nc(-c3cccs3)no2)cc1
Response: class 0

Prompt: Which outcome did this test record for the molecule COc1ccc(CC(NC(C)=O)C(=O)NC2CCN(C(=O)C3CC3)CC2)cc1OC (stereo unspecified) ?
Response: class 0

====

# MEASUREMENT_TARGET: Sentrin-specific protease 6 (Homo sapiens)
# METHOD: SENP6 protease inhibitors, primary screen, biochemical, luminescence, uHTS (AID 2599);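 also: plate controls were DMSO wells with enzyme for no effect and DMSO wells lacking enzyme for full effect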
# CONDITIONS: Recombinant SENP6 catalytic domain, aminoluciferin luminescence; at 10 µM
Hit rate of the full screen: of about 330,000 compounds, about 5,800 (1.8%) were called active.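 The calls were made as follows: active = inhibition above about 50% at the single tested dose (limit read from the data); inactive = the rest.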 Only a selection was taken, and actives are over-represented in it overall.
Write down one outcome, taken from active, inactive

Example entries begin here.
- C=CCC(C(=O)c1ccccc1)[N+](C)(C)CC=C (stereo not given): inactive
- Cc1cccc(Nc2nc(-c3ccccc3)cs2)n1: active
- CC(=O)Nc1cccc(-c2csc(Nc3cccc(C)n3)n2)c1: active
- CC1(C)O[C@@H]2[C@H](O1)[C@@H](COS(=O)(=O)O)O[C@H]2n1ccc(=O)[nH]c1=O: inactive
- COc1ccc(C(CC(=O)c2ccccc2)S(=O)(=O)c2ccccc2)cc1 (stereo not given): active
- O=C(CN1C(=O)CC(c2ccccc2)=Nc2ccccc21)NC1CCCCC1: inactive

Prompt: What outcome does the record of this test show for COc1ccc(C(=O)Nc2cc(C)c(NC(=O)c3ccccc3OC)cn2)cc1 ?
Response: inactive

====

# MEASUREMENT_TARGET: Sentrin-specific protease 6 (Homo sapiens) (UniProt Q9GZR1)
# METHOD: SENP6 protease inhibitors, primary screen, biochemical, luminescence, uHTS (AID 2599);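 also: plate controls were DMSO wells with enzyme for no effect and DMSO wells lacking enzyme for full effect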
# CONDITIONS: Recombinant SENP6 catalytic domain, aminoluciferin luminescence; at 10 µM; active compounds read high
Out of some 330,000 compounds screened, about 5,800 (1.8%) were called active. Shown is part of a subset that was picked to be rich in actives.
Could you please report measured inhibition for the items listed next?
One number for each entry, in %.

Example entries begin here.
- O=C(NCC(c1ccco1)N1CCc2ccccc2C1)c1ccccc1Cl (stereo unspecified): -27.1
- Cc1cc(NC(=O)c2ccc(F)cc2)ccc1NC(=O)c1ccco1: 43.7
- Cc1cccc2c(=O)n3c(nc12)CCCCC3: 9.44
- O=C(Nc1nc2ccccc2s1)c1ccc2c(c1)OCO2: 94.8

For each of the items listed, what is its inhibition?
1. COc1ccc(C(C)NC(=S)NC2CCCCC2)cc1OC (stereo unspecified)
2. CC(C)Cc1cc(C(=O)Nc2cc(Br)ccc2O)no1
3. CCOc1ccc(N/C=C/C(=O)c2cc(OC)c(OC)c(OC)c2)cc1
4. COC(=O)CCSc1nccn1Cc1ccccc1
5. Fc1c(F)c(C(F)(F)F)c(F)c(F)c1N1CCN(c2ccc3nnc(C(F)(F)F)n3n2)CC1
6. CCS(=O)(=O)Nc1ccc(C(=O)NCCSc2ccccc2)cc1
7. COc1ccc(COC(=O)c2n[nH]c3ccccc23)cc1F
8. COc1ccccc1C(=O)Nc1ccc(NC(=O)c2ccco2)c(C)c1

Response:
1: -13.2; 2: 58.1; 3: -7.87; 4: -11; 5: 3.56; 6: 11.9; 7: -5.01; 8: 66.3

Quick request: inhibition for each listed item, please.
1. CCc1nn(CCCN2CCN(c3cccc(Cl)c3)CC2)c(=O)n1CCOc1ccccc1
2. CC1(C)C=C2[C@H]3CC[C@@H]4[C@@]5(C)CCC(=O)C(C)(C)[C@@H]5CC[C@@]4(C)[C@]3(C)CC[C@@]2(C(=O)O)CC1
3. O=S(=O)(Cc1nnnn1-c1ccccc1)c1ccccc1
4. O=C(c1ccc(OC2CCN(C/C=C/c3ccc(F)cc3)CC2)cc1)N1CCCCC1
5. O=C(Nc1cccc([N+](=O)[O-])c1)c1ccc2c(c1)OCO2

Response:
[-12, 12.4, 6.33, 0.618, 66.7]

Here are 3 compounds. What values of inhibition were reported for them?
1. O=C(CCNC(=O)c1ccccc1Cl)NCc1ccco1
2. CN1CCN(c2ccc(NC(=O)c3ccc4c(c3)OCCO4)cc2Cl)CC1
3. CCOc1ccc(N/C=C/C(=O)c2ccccc2)cc1

Response:
[-14.5, 3.53, 94.4]

Would you mind listing inhibition for each of the following compounds?
1. Oc1ccc(CNc2ccccc2O)cc1
2. Cc1cc(Nc2cccc(C)c2C)n2ncnc2n1
3. CCOc1ccc(NC(=S)N2CCC(NC(=O)c3ccccc3)CC2)cc1

Response:
1: 17.3; 2: -7.33; 3: -17.6

Report inhibition for every entry below.
1. COc1ccc2oc(C(=O)NCC(Cc3ccccc3)N(C)C)c(C)c2c1 (stereo unspecified)
2. CCC1C(=O)c2ccccc2N(C)C1=O (stereo unspecified)
3. O=C(c1cccs1)N1CCC(c2nc3ccccc3s2)CC1
4. O=C(/C=C/NCc1ccc(F)cc1)c1ccccc1
5. Cc1ccc(CN2CC(C(=O)NNC(=O)Cn3ccc(C(F)(F)F)n3)CC2=O)cc1 (stereo unspecified)
6. CC(NC(=O)COC(=O)c1ccc2c(c1)OCO2)c1ccccc1 (stereo unspecified)

Response:
-20.2
-9.28
5.91
-0.568
-0.795
-2.95

Dear colleague, could you please provide inhibition for the compounds listed below?
1. COc1cccc(OCC(O)CNC(=O)c2oc3c(C)c(C)ccc3c2C)c1 (stereo unspecified)
2. O=C(NNS(=O)(=O)c1ccccc1C(F)(F)F)c1cc2ncc(C(F)(F)F)cc2s1
3. Cc1cc(C)n2nc(C(=O)Nc3cccc(S(=O)(=O)N4CCOCC4)c3)nc2n1
4. O=C(Nc1ccccc1)c1ccc2c(c1)OCCCO2
5. COc1ccc(OCC(=O)Nc2ccc(NC(=O)c3ccco3)c(C)c2)cc1
6. CCOc1cc2[nH]c(=S)n(CCCN3CCCC3=O)c(=O)c2cc1OCC

Response:
1. 95.6
2. 4.2
3. -2.51
4. 86.7
5. -34.6
6. -8.53

Give one value of inhibition per listed compound.
1. CCn1c(SCC(=O)Nc2ccc(Br)cc2)nc2sc3c(c2c1=O)CCN(C)C3
2. Cc1nn2c(NCCN(C)C)c3c(nc2c1-c1ccccc1)CCC3
3. COc1ccc(N2C(=O)CCC(C(=O)Nc3ccccn3)C2c2ccc(OC)c(OC)c2)cc1 (stereo unspecified)
4. CC(C)Cc1cc(C(=O)NCCc2ccccc2)no1
5. CC(NC(=O)Nc1cccc([N+](=O)[O-])c1)c1ccc2c(c1)OCO2 (stereo unspecified)

Response:
12.7
-33.9
-4.43
13
-3.48

For every item below, please supply its inhibition.
1. COc1ccc2oc(C(=O)NCc3ccco3)c(C)c2c1
2. CC(=O)Nc1ccc(/C=C/C(=O)c2ccccc2)cc1
3. CN1C(=O)/C(=C\c2cc(Br)cs2)c2ccccc21
4. Cc1ccc2sc(NNC(=O)c3ccc4c(c3)OCCO4)nc2c1C
5. CCOC(=O)C1(Cc2ccccc2C(F)(F)F)CCN(C(=O)c2cc(C)n(C)n2)CC1
6. Cc1ccc(C(=O)COc2cccc(NC(=O)c3ccco3)c2)cc1

Response:
1: -9.13; 2: -17; 3: 66.3; 4: 12.7; 5: -1.7; 6: -16.4
